// provenance: the supplement of paper PMC5579334

- Test system: STS26T
- experimental-protocol: drug sensitivity score (DSS, CellTiter-Glo viability, 72 h) (DSS (dimensionless)); higher = more sensitive; extreme values may be limits of the assay
Recorded drug sensitivity score, one value per entry.
readout-kind: drug sensitivity score

>>> observed_value("CCCCCOC(=O)Nc1nc(=O)n([C@@H]2O[C@H](C)[C@@H](O)[C@H]2O)cc1F [Capecitabine] (max concentration tested 10000 nM)")
0.0023
>>> observed_value("NC1(c2ccc(-c3nc4ccn5c(=O)[nH]nc5c4cc3-c3ccccc3)cc2)CCC1 [MK-2206] (max concentration tested 1000 nM)")
2.7
>>> observed_value("CO[C@H](C(=O)[C@@H](O)[C@@H](C)O)[C@@H]1Cc2cc3cc(O[C@H]4C[C@@H](O[C@H]5C[C@@H](O)[C@H](O)[C@@H](C)O5)[C@@H](O)[C@@H](C)O4)c(C)c(O)c3c(O)c2C(=O)[C@H]1O[C@H]1C[C@@H](O[C@H]2C[C@@H](O[C@H]3C[C@](C)(O)[C@H](O)[C@@H](C)O3)[C@H](O)[C@@H](C)O2)[C@H](O)[C@@H](C)O1 [Plicamycin] (max concentration tested 10000 nM)")
27
>>> observed_value("CC1=C(/C=C/C(C)=C/C=C/C(C)=C/C(=O)O)C(C)(C)CCC1 [Tretinoin] (max concentration tested 10000 nM)")
0.0098
